systemName: EPHA3 (human) (UniProt P29320)
Sequence (P29320 whole entry, looked up): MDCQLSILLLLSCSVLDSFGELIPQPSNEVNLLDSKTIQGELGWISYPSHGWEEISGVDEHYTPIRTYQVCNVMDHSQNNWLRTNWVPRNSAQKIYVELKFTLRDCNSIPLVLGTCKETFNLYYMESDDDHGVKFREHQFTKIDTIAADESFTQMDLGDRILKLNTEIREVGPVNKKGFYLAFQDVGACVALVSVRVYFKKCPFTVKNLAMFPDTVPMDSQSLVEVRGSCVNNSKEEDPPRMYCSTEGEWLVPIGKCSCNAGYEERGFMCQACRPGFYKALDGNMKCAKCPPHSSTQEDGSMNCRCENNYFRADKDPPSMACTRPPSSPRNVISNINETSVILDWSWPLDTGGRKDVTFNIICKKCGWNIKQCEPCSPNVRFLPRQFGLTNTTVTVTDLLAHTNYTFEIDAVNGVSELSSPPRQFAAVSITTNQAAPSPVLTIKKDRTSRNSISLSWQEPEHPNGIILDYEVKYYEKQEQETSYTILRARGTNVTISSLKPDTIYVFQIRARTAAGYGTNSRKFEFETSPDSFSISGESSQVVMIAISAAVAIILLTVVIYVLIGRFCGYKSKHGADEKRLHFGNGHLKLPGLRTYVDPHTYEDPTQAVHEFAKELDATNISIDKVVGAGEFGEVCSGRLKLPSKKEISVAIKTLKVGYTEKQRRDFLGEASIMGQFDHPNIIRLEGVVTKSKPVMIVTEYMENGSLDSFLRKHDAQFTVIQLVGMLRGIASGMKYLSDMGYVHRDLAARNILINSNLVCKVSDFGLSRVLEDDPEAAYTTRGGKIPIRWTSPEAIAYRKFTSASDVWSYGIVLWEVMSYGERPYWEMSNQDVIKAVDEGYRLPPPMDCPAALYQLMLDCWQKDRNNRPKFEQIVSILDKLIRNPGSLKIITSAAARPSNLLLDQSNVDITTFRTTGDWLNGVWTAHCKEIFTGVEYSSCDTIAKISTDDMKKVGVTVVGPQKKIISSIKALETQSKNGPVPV
protocolDetails: KINOMEscan competition binding
measurementParameters: compound 10.0 µM
# y = kinase still bound, per cent of control below 70% (exclusive); n = kinase still bound, per cent of control at/above 70%

Solved entries (count: 5):
>  <smilesRecord>
COCC(=O)NC/C=C/c1ccc2ncnc(Nc3ccc(Oc4ccc(C)nc4)c(C)c3)c2c1

>  <categoryLabel>
n

$$$$
>  <smilesRecord>
O=C(Nc1cccc(Nc2ncc(Br)c(NCCc3cnc[nH]3)n2)c1)N1CCCC1

>  <categoryLabel>
y

$$$$
>  <smilesRecord>
CN(C)C/C=C/C(=O)Nc1ccc(C(=O)Nc2cccc(Nc3nccc(-c4cccnc4)n3)c2)cc1

>  <categoryLabel>
n

$$$$
>  <smilesRecord>
COc1cc(C(=O)N2CCC(N3CCN(C)CC3)CC2)ccc1Nc1ncc2c(n1)N(C)c1ccccc1C(=O)N2C

>  <categoryLabel>
n

$$$$
>  <smilesRecord>
C[C@@H](Oc1cc(-c2cnn(C3CCNCC3)c2)cnc1N)c1c(Cl)ccc(F)c1Cl

>  <categoryLabel>
y

$$$$

Lab log: compare recorded kinase still bound, per cent of control with 70%; is it strictly lower for O=C1NC(=O)/C(=C/c2ccc3nccc(-c4ccncc4)c3c2)S1 ?
n

Does the reported kinase still bound, per cent of control of the following molecule sit strictly below 70%? Cc1n[nH]c2ccc(-c3cncc(OC[C@@H](N)Cc4c[nH]c5ccccc45)c3)cc12
n

Confirm or reject: kinase still bound, per cent of control of COc1ccc(N(C(=O)Oc2c(C)cccc2C)c2ccnc(Nc3ccc(N4CCN(C)CC4)cc3)n2)c(OC)c1 lies strictly below 70%
y

Could you please tell me whether kinase still bound, per cent of control recorded for COc1cc(N2CCN(C)CC2)ccc1Nc1ncc2c(n1)N(C)c1ccccc1C(=O)N2C is less than 70%?
n

Field: below-cutoff. Rule: recorded kinase still bound, per cent of control strictly less than 70%. Subject: CCN1CCN(C(=O)Cc2ccc(Nc3ncc(F)c(Nc4ccc(C(=O)Nc5ccccc5Cl)cc4)n3)cc2)CC1
y

Is the reported kinase still bound, per cent of control for COc1cc2ncnc(-n3nc(-c4ccccn4)nc3N)c2cc1OC strictly below 70%?
y

====

systemName: NEK11 (human)
protocolDetails: KINOMEscan competition binding
measurementParameters: compound 10.0 µM
In this section we review reported kinase still bound, per cent of control values for a set of compounds.
Kindly provide the numeric value in % only, without the unit symbol.

Here is how some compounds turned out for kinase still bound, per cent of control.
>  <smilesRecord>
NC(=O)Nc1cc(-c2cccc(F)c2)sc1C(=O)N[C@@H]1CCCNC1

>  <obsValue>
100

$$$$
>  <smilesRecord>
CCN1CCN(C(=O)Cc2ccc(Nc3ncc(F)c(Nc4ccc(C(=O)Nc5ccccc5Cl)cc4)n3)cc2)CC1

>  <obsValue>
100

$$$$

Would you mind telling me what kinase still bound, per cent of control value was observed for COCC(=O)NC/C=C/c1ccc2ncnc(Nc3ccc(Oc4ccc(C)nc4)c(C)c3)c2c1 ?
100

Field request: kinase still bound, per cent of control | item: O=C(Nc1cccc(Nc2ncc(Br)c(NCCc3cnc[nH]3)n2)c1)N1CCCC1
85

Reported kinase still bound, per cent of control, compound N#CCNC(=O)c1ccc(-c2ccnc(Nc3ccc(N4CCOCC4)cc3)n2)cc1 : ____
100

For COc1cc2ncn(-c3cc(OCc4ccccc4C(F)(F)F)c(C(N)=O)s3)c2cc1OC , what is its reported kinase still bound, per cent of control?
100

Which kinase still bound, per cent of control value is on record for C[C@@H](Oc1cc(-c2cnn(C3CCNCC3)c2)cnc1N)c1c(Cl)ccc(F)c1Cl ?
98

Given the entry CN(C)C/C=C/C(=O)Nc1ccc(C(=O)Nc2cccc(Nc3nccc(-c4cccnc4)n3)c2)cc1 , report its measured kinase still bound, per cent of control.
100

Which kinase still bound, per cent of control value is on record for COc1cc(C(=O)N2CCC(N3CCN(C)CC3)CC2)ccc1Nc1ncc2c(n1)N(C)c1ccccc1C(=O)N2C ?
100

====

systemName: MAP2K4 (human) (UniProt P45985)
Sequence (P45985 whole entry, looked up): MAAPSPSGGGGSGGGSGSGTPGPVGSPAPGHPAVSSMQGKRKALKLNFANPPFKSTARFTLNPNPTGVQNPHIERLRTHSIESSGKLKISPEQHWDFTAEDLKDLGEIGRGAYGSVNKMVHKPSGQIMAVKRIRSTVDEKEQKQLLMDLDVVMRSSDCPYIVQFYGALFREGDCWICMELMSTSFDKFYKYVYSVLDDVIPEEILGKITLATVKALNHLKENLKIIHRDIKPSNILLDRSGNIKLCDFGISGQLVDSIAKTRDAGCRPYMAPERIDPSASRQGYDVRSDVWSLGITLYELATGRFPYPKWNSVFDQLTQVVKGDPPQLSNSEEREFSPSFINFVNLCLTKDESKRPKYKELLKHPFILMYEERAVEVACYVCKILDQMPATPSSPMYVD
protocolDetails: KINOMEscan competition binding
measurementParameters: compound 10.0 µM
metricName: kinase still bound, per cent of control (%)
Quick note: give the figure in %, leave out the unit.

Guide cases for kinase still bound, per cent of control, answers given:
>  <smilesRecord>
CNC(=O)c1ccc(Nc2cc(Nc3ccccc3S(=O)(=O)C(C)C)c3cc[nH]c3n2)nc1

>  <systemName>
MAP2K4 (human) (UniProt P45985)

>  <kinase still bound, per cent of control / %>
100

$$$$
>  <smilesRecord>
O=C1NC(=O)/C(=C/c2ccc3nccc(-c4ccncc4)c3c2)S1

>  <systemName>
MAP2K4 (human) (UniProt P45985)

>  <kinase still bound, per cent of control / %>
9.6

$$$$

Reported kinase still bound, per cent of control for MAP2K4 (human) (UniProt P45985), given C=CC(=O)Nc1cc(-n2c(=O)ccc3cnc4ccc(-c5cn[nH]c5)cc4c32)ccc1C ?
14

# get_value(readout= kinase still bound, per cent of control, system= MAP2K4 (human) (UniProt P45985)) for CCN(CC)CCCCNc1ncc2c(n1)N(C)C(=O)N(c1c(Cl)c(OC)cc(OC)c1Cl)C2
100

====

systemName: FRK (human) (UniProt P42685)
Sequence (P42685 whole entry, looked up): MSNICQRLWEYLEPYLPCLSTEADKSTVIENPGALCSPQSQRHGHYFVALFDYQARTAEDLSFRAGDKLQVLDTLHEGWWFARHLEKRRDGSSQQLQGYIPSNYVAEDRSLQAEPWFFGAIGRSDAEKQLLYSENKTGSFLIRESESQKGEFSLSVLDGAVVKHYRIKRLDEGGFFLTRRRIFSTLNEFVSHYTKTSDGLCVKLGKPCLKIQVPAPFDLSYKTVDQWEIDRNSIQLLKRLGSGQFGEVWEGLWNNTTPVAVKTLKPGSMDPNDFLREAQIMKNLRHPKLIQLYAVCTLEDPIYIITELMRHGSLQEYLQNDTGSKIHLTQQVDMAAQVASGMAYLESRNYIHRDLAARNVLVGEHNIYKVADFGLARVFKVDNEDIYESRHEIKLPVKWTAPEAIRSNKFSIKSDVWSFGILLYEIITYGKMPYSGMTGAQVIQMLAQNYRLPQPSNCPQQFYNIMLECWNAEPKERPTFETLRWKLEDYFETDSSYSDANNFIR
protocolDetails: KINOMEscan competition binding
measurementParameters: compound 10.0 µM
Reported kinase still bound, per cent of control values for the following molecules.
Could you give me the number in %? Just the number is fine.

Some entries whose results are on file:
>  <smilesRecord>
O=C(Nc1cccc(Nc2ncc(Br)c(NCCc3cnc[nH]3)n2)c1)N1CCCC1

>  <kinase still bound, per cent of control [%]>
46

$$$$
>  <smilesRecord>
CS(=O)(=O)N1CCN(Cc2cc3nc(-c4cccc5[nH]ncc45)nc(N4CCOCC4)c3s2)CC1

>  <kinase still bound, per cent of control [%]>
100

$$$$
>  <smilesRecord>
CN(C)C/C=C/C(=O)Nc1ccc(C(=O)Nc2cccc(Nc3nccc(-c4cccnc4)n3)c2)cc1

>  <kinase still bound, per cent of control [%]>
100

$$$$

// lookup kinase still bound, per cent of control for CCN(CC)CCCCNc1ncc2c(n1)N(C)C(=O)N(c1c(Cl)c(OC)cc(OC)c1Cl)C2
100

Bench note: what kinase still bound, per cent of control did N#CCNC(=O)c1ccc(-c2ccnc(Nc3ccc(N4CCOCC4)cc3)n2)cc1 show?
98

Which kinase still bound, per cent of control reading was recorded for the molecule NC(=O)Nc1cc(-c2cccc(F)c2)sc1C(=O)N[C@@H]1CCCNC1 ?
0.65

# query: kinase still bound, per cent of control of entry CCN1CCN(C(=O)Cc2ccc(Nc3ncc(F)c(Nc4ccc(C(=O)Nc5ccccc5Cl)cc4)n3)cc2)CC1
28

Query: kinase still bound, per cent of control; subject: CCN(CC)CCCCNc1ncc2cc(-c3cc(OC)cc(OC)c3)c(NC(=O)NC(C)(C)C)nc2n1
100

Query: kinase still bound, per cent of control; subject: COc1cc(C(=O)N2CCC(N3CCN(C)CC3)CC2)ccc1Nc1ncc2c(n1)N(C)c1ccccc1C(=O)N2C
34

====

systemName: MAP2K4 (human)
protocolDetails: KINOMEscan competition binding
measurementParameters: compound 10.0 µM
Each item that follows carries a reported kinase still bound, per cent of control.
Just the number in %, nothing appended.

>  <smilesRecord>
Cc1n[nH]c2ccc(-c3cncc(OC[C@@H](N)Cc4c[nH]c5ccccc45)c3)cc12

>  <systemName>
MAP2K4 (human)

>  <endpointUnit>
%

>  <kinase still bound, per cent of control>
100

$$$$
>  <smilesRecord>
COc1cc2ncnc(-n3nc(-c4ccccn4)nc3N)c2cc1OC

>  <systemName>
MAP2K4 (human)

>  <endpointUnit>
%

>  <kinase still bound, per cent of control>
3.8

$$$$
>  <smilesRecord>
C=CC(=O)Nc1ccc(CN(C(=O)Nc2c(Cl)c(OC)cc(OC)c2Cl)c2cc(Nc3ccc(N4CCN(C)CC4)cc3)ncn2)cc1

>  <systemName>
MAP2K4 (human)

>  <endpointUnit>
%

>  <kinase still bound, per cent of control>
100

$$$$
>  <smilesRecord>
CCN(CC)CCCCNc1ncc2cc(-c3cc(OC)cc(OC)c3)c(NC(=O)NC(C)(C)C)nc2n1

>  <systemName>
MAP2K4 (human)

>  <endpointUnit>
%

>  <kinase still bound, per cent of control>
100

$$$$
>  <smilesRecord>
CCN1CCN(C(=O)Cc2ccc(Nc3ncc(F)c(Nc4ccc(C(=O)Nc5ccccc5Cl)cc4)n3)cc2)CC1

>  <systemName>
MAP2K4 (human)

>  <endpointUnit>
%

>  <kinase still bound, per cent of control>
49

$$$$
>  <smilesRecord>
COCC(=O)NC/C=C/c1ccc2ncnc(Nc3ccc(Oc4ccc(C)nc4)c(C)c3)c2c1

>  <systemName>
MAP2K4 (human)

>  <endpointUnit>
%

>  <kinase still bound, per cent of control>
95

$$$$
>  <smilesRecord>
COc1ccc(N(C(=O)Oc2c(C)cccc2C)c2ccnc(Nc3ccc(N4CCN(C)CC4)cc3)n2)c(OC)c1

>  <systemName>
MAP2K4 (human)

>  <endpointUnit>
%

>  <kinase still bound, per cent of control>
100

$$$$
>  <smilesRecord>
O=C(Nc1cccc(Nc2ncc(Br)c(NCCc3cnc[nH]3)n2)c1)N1CCCC1

>  <systemName>
MAP2K4 (human)

>  <endpointUnit>
%

>  <kinase still bound, per cent of control>
0.3

$$$$
>  <smilesRecord>
NC(=O)Nc1cc(-c2cccc(F)c2)sc1C(=O)N[C@@H]1CCCNC1

>  <systemName>
MAP2K4 (human)

>  <endpointUnit>
%

>  <kinase still bound, per cent of control>
2.2

$$$$
>  <smilesRecord>
COc1cc(N2CCN(C)CC2)ccc1Nc1ncc2c(n1)N(C)c1ccccc1C(=O)N2C

>  <systemName>
MAP2K4 (human)

>  <endpointUnit>
%

>  <kinase still bound, per cent of control>
100

$$$$

# next molecule below
Param readout= kinase still bound, per cent of control; system= MAP2K4 (human); entry= O=c1cc(N2CCOCC2)oc2c(-c3cccc4c3sc3ccccc34)cccc12 ; returns value.
100

Reference source: the kinase profiling compilation of Christmann-Franck et al. (2016)
